# EXPERIMENTAL_SYSTEM: UniProt P45452
# PROTOCOL_SUMMARY: Inhibition of human active MMP13 using (7-methoxycoumarin-4-yl)acetyl-Pro-Leu-Gly-Leu-(3-(2,4-dinitrophenyl)-L-2,3-diamino-propionyl)Ala-Arg-NH2 as substrate preincubated for 30 mins followed by substrate addition and measured for 10 mins by fluorescence assay
# MEASUREMENT_CONDITIONS: read-out: IC50
MEASURED_ENDPOINT: pIC50
Notebook: values listed as pIC50 are -log10 of the concentration (mol/L).

// query Look up pIC50 of COc1ccc(CC2(CCCCCCC(F)CF)C(=O)NC(=O)NC2=O)cc1 (stereo unspecified) and report it.
// result 7.77

// query Look up pIC50 of COc1ccc(CC2(CCCCCCCC(F)(F)F)C(=O)NC(=O)NC2=O)cc1 and report it.
// result 6.75

// query Look up pIC50 of O=C1NC(=O)C(CCCCCCCC(F)(F)F)(Cc2ccccc2)C(=O)N1 and report it.
// result 6.12

// query Look up pIC50 of CCCCCCCCC1(Cc2ccccc2)C(=O)NC(=O)NC1=O and report it.
// result 6.67

// query Look up pIC50 of O=C1NC(=O)C(CCCCCCCC(F)CF)(Cc2ccccc2)C(=O)N1 (stereo unspecified) and report it.
// result 6.79

// query Look up pIC50 of CCCCCCCCCC1(Cc2ccccc2)C(=O)NC(=O)NC1=O and report it.
// result 6.74

// query Look up pIC50 of COc1ccc(CC2(CCCCCCCC(C)C)C(=O)NC(=O)NC2=O)cc1 and report it.
// result 6.65

// query Look up pIC50 of COc1ccc(CC2(CCCCCCCC(F)CF)C(=O)NC(=O)NC2=O)cc1 (racemic) and report it.
// result 7.19

// query Look up pIC50 of CCCCCCCCCC1(Cc2ccc(OC)cc2)C(=O)NC(=O)NC1=O and report it.
// result 7.08

// query Look up pIC50 of CCCCCCCCC1(Cc2ccc(OC)cc2)C(=O)NC(=O)NC1=O and report it.
// result 7.03

// query Look up pIC50 of O=C1NC(=O)C(CCCCCCC(F)CF)(Cc2ccccc2)C(=O)N1 (stereo unspecified) and report it.
// result 6.90
